- method-notes: pharmacokinetics of 16 ginsenosides in rat plasma after oral administration of RGS
- Assay type: in vivo
- experimental-parameters: normal rats, oral RGS single dose 100 mg/kg, plasma, mean ± S.D., n = 5
Output rule met for records whose AUC 0-t is lower than 300 ng·h/g, rule not met for records at or above 300 ng·h/g.

Reference set (5 entries):
C=C(CCC=C(C)C)C1CCC2(C)C1C(O)CC1C3(C)CCC(OC4OC(CO)C(O)C(O)C4OC4OC(CO)C(O)C(O)C4O)C(C)(C)C3CCC12C (stereo not shown) [Rk1] = rule not met
CC(C)=CCCC(C)(OC1OC(COC2OCC(O)C(O)C2O)C(O)C(O)C1O)C1CCC2(C)C1C(O)CC1C3(C)CCC(OC4OC(CO)C(O)C(O)C4OC4OC(CO)C(O)C(O)C4O)C(C)(C)C3CCC12C (stereo not shown) [Rb2] = rule met
CC(C)=CCCC(C)(OC1OC(CO)C(O)C(O)C1O)C1CCC2(C)C1C(O)CC1C3(C)CCC(O)C(C)(C)C3C(OC3OC(CO)C(O)C(O)C3OC3OC(C)C(O)C(O)C3O)CC12C (stereo not shown) [Re] = rule met
CC(C)=CCCC(C)(O)C1CCC2(C)C1C(O)CC1C3(C)CCC(O)C(C)(C)C3C(OC3OC(CO)C(O)C(O)C3O)CC12C (stereo not shown) [Rh1] = rule met
CC(C)=CCCC(C)(O)C1CCC2(C)C1C(O)CC1C3(C)CCC(OC4OC(CO)C(O)C(O)C4O)C(C)(C)C3CCC12C (stereo not shown) [Rh2] = rule not met

Input line: Does this molecule meet the criterion AUC 0-t < 300 ng·h/g? CC(C)=CCCC(C)(OC1OC(CO)C(O)C(O)C1O)C1CCC2(C)C1C(O)CC1C3(C)CCC(OC4OC(CO)C(O)C(O)C4OC4OC(CO)C(O)C(O)C4O)C(C)(C)C3CCC12C (stereo not shown) [Rd]
Output line: rule not met

Input line: Does this molecule meet the criterion AUC 0-t < 300 ng·h/g? CC(C)=CCCC(C)(OC1OC(COC2OC(CO)C(O)C(O)C2O)C(O)C(O)C1O)C1CCC2(C)C1C(O)CC1C3(C)CCC(OC4OC(CO)C(O)C(O)C4OC4OC(CO)C(O)C(O)C4O)C(C)(C)C3CCC12C (stereo not shown) [Rb1]
Output line: rule met

Input line: Does this molecule meet the criterion AUC 0-t < 300 ng·h/g? CC(C)=CCC=C(C)C1CCC2(C)C1C(O)CC1C3(C)CCC(OC4OC(CO)C(O)C(O)C4OC4OC(CO)C(O)C(O)C4O)C(C)(C)C3CCC12C (stereo not shown) [Rg5]
Output line: rule not met

Input line: Does this molecule meet the criterion AUC 0-t < 300 ng·h/g? CC(C)=CCCC(C)(OC1OC(CO)C(O)C(O)C1O)C1CCC2(C)C1C(O)CC1C3(C)CCC(O)C(C)(C)C3C(OC3OC(CO)C(O)C(O)C3O)CC12C (stereo not shown) [Rg1]
Output line: rule not met

Input line: Does this molecule meet the criterion AUC 0-t < 300 ng·h/g? CC(C)=CCCC(C)(OC1OC(COC2OC(CO)C(O)C2O)C(O)C(O)C1O)C1CCC2(C)C1C(O)CC1C3(C)CCC(OC4OC(CO)C(O)C(O)C4OC4OC(CO)C(O)C(O)C4O)C(C)(C)C3CCC12C (stereo not shown) [Rc]
Output line: rule met
